- Tested on: BT-549 breast
- procedureDetails: NCI tumour cell line growth inhibition, 48 h
metric: TGI (µM)
Reply with just the number (in µM).

Query block: Report TGI for `COc1cc(-c2nccn2-c2ccc3ccccc3c2)cc(OC)c1OC` please.
Result block: 15.6

Query block: Report TGI for COc1ccc(C(C)c2cc3c(cc2O)OCO3)cc1 (stereo unspecified) please.
Result block: 32.5

Query block: Report TGI for c1cc[n+](C2c3ccccc3C([n+]3ccccc3)c3ccccc32)cc1 (stereo unspecified) please.
Result block: 14.6

Query block: Report TGI for `Nc1n[nH]c2cccc(C#Cc3cccc(NC(=O)c4ccc(N5CCOCC5)c(C(F)(F)F)c4)c3)c12` please.
Result block: 6.8

###

- Test system: OVCAR-8 ovarian
- procedureDetails: NCI tumour cell line growth inhibition, 48 h
metric: TGI (µM)
Reply with just the number (in µM).

Query block: Report TGI for `c1ccc2c(c1)c1c(n2CCOCCCN2CCCCC2)CCCC1` please.
Result block: 32.5

Query block: Report TGI for `CN(CCCN=C=S)CCCN1c2ccccc2CCc2ccccc21` please.
Result block: 3.43

Query block: Report TGI for `CC(C)(C)c1ccc(O)c(CN(Cc2c(O)ccc3ccccc23)C2CCCCC2)c1` please.
Result block: 31.8

###

- Tested on: A549 NSCLC
- procedureDetails: NCI tumour cell line growth inhibition, 48 h
metric: TGI

Query block: For A549 NSCLC, provide TGI of `COc1cccc(C2=C(c3cn(C)c4ccc(Cl)cc34)C(=O)NC2=O)c1` please.
Result block: > 25 µM

Query block: For A549 NSCLC, provide TGI of `CC(C)C(=O)OCN(C)c1nc(N(C)COC(=O)C(C)C)nc(N(C)COC(=O)C(C)C)n1` please.
Result block: > 100 µM

Query block: For A549 NSCLC, provide TGI of `C1C[OH+]CC[OH+]CC[OH+]CC[OH+]CC[OH+]CC[OH+]1.[Cl-].[V]` please.
Result block: > 100 µM

Query block: For A549 NSCLC, provide TGI of `O=C(Nc1ncc(Cc2ccccc2)s1)c1sc2ccccc2c1Cl` please.
Result block: > 50.4 µM

Query block: For A549 NSCLC, provide TGI of `C=CC(=O)C#CC#CC/C=C\CCCCCCC` please.
Result block: > 20.6 µM

Query block: For A549 NSCLC, provide TGI of `O=C1C(=O)c2cc([N+](=O)[O-])ccc2-c2ccc([N+](=O)[O-])cc21` please.
Result block: 5.97 µM

Query block: For A549 NSCLC, provide TGI of CC1CC[C@@]23CCC4(C)[C@@](C=CC5[C@@]6(C)CCC(=O)C(C)(C)C6CC[C@]54C)(OC2=O)[C@@H]3[C@H]1C (stereo partly specified) please.
Result block: 81 µM

Query block: For A549 NSCLC, provide TGI of `CSc1nc(-c2cc3ccccc3o2)cc(-c2ccc(Cl)cc2)c1C#N` please.
Result block: > 100 µM

Query block: For A549 NSCLC, provide TGI of `O=C(O)c1ccc(C(=O)Nc2cccc3ccccc23)c(C(=O)O)c1` please.
Result block: > 100 µM

Query block: For A549 NSCLC, provide TGI of `COc1cc2c(/C=C3/C(=O)Nc4c3ccc3ccccc43)c(Cl)n(C)c2cc1C` please.
Result block: 2.01 µM

Query block: For A549 NSCLC, provide TGI of `COc1cc(Nc2ccnc(NCCNc3ccnc4cc(Cl)ccc34)n2)cc(OC)c1` please.
Result block: 14.8 µM

Query block: For A549 NSCLC, provide TGI of CCOC(=O)C1=C(C)NC(=O)NC1c1ccc(N(CCCl)CCCl)cc1Cl (stereo unspecified) please.
Result block: 26.6 µM

Query block: For A549 NSCLC, provide TGI of `COc1cc(/C=C/C(=O)c2ccc(Nc3nc(NCCO)nc(N4CCOCC4)n3)cc2)cc(OC)c1OC` please.
Result block: > 100 µM

Query block: For A549 NSCLC, provide TGI of `O=C(c1ccco1)c1nc2ccc(Cl)cc2[n+]([O-])c1C(F)(F)F` please.
Result block: > 100 µM

Query block: For A549 NSCLC, provide TGI of COc1ccc(C(=O)N2c3ccccc3N(C)n3cccc3C2CC(=O)O)cc1 (stereo unspecified) please.
Result block: > 100 µM

Query block: For A549 NSCLC, provide TGI of `N#CC1(Nc2ccc(Br)cc2)CCCC1` please.
Result block: > 100 µM

Query block: For A549 NSCLC, provide TGI of `COC(=O)Cc1cc2c(cc1C(=O)c1ccc(N)cc1)OCO2` please.
Result block: > 77.8 µM

Query block: For A549 NSCLC, provide TGI of `O=C1CC[C@H](NC(=O)Cc2ccccc2)C(=O)N1` please.
Result block: > 1250 µM

Query block: For A549 NSCLC, provide TGI of `CN(C)CCCNc1ccnc2cccc([N+](=O)[O-])c12` please.
Result block: 35.7 µM

Query block: For A549 NSCLC, provide TGI of Clc1ccc(C(Cn2ccnc2)OCc2ccsc2Cl)c(Cl)c1 (stereo unspecified) please.
Result block: 14.2 µM

Query block: For A549 NSCLC, provide TGI of `C[C@H]1[C@H](N2CCCC2)O[Si](C(C)(C)C)(C(C)(C)C)[C@@H]1C` please.
Result block: > 100 µM

###

- Test system: MOLT-4 leukemia
- procedureDetails: NCI tumour cell line growth inhibition, 48 h
Where a SMILES comes first, the peptide text is derived from it. [ ]: non-standard residue; d: D form. The star is where a group is joined. Dolaproine = CO[C@@H]([C@@H]1CCCN1)[C@@H](C)C(=O)O; Dil = CC[C@H](C)[C@H](NC)[C@@H](CC(=O)O)OC; X2 = C[C@@H](N*)[C@@H](O)c1ccccc1; NMeV = CN[C@H](C(=O)O)C(C)C
metric: TGI

Query block: Report TGI for `O=C(c1ccc(Cl)c(Cl)c1)N1CCN(C(=O)c2ccc(Cl)c(Cl)c2)C1=S` please.
Result block: 36.3 µM

Query block: Report TGI for `COc1cc(Nc2ccnc(NCCNc3ccnc4cc(Cl)ccc34)n2)cc(OC)c1` please.
Result block: 8.9 µM

Query block: Report TGI for `O=C(Cc1n[nH]c(=O)c2ccccc12)OCc1c(Cl)cccc1Cl` please.
Result block: > 100 µM

Query block: Report TGI for Cc1cn(C2CC(OC3CCCCO3)C(CO)O2)c(=O)[nH]c1=O (stereo not drawn) please.
Result block: > 100 µM

Query block: Report TGI for `O=c1[nH]c(=O)n(COCCOCc2ccccc2)cc1Nc1ccccc1` please.
Result block: > 100 µM

Query block: Report TGI for NC(N)=NCCC[C@H]1NC(=O)[C@@H](CCC(=O)O)NC(=O)[C@@H](CC(=O)O)NC(=O)[C@@H](CCC(=O)O)NC(=O)[C@H](Cc2c[nH]c3ccccc23)NC1=O (cyclo(W[dE][dD][dE][dR])) please.
Result block: > 7.5 µM

Query block: Report TGI for CC1CC[C@@]23CCC4(C)[C@@](C=CC5[C@@]6(C)CCC(=O)C(C)(C)C6CC[C@]54C)(OC2=O)[C@@H]3[C@H]1C (stereo partly drawn) please.
Result block: 27.8 µM

Query block: Report TGI for CC(C)(C)OC(=O)C1CCC/C1=N/Nc1ccc([N+](=O)[O-])cc1[N+](=O)[O-] (stereo not drawn) please.
Result block: > 100 µM

Query block: Report TGI for `O=c1cc(-c2ccccc2)nc(-n2[nH]c3c(c2=O)CCCC3)[nH]1` please.
Result block: > 100 µM

Query block: Report TGI for `O=C(O)c1ccc(C(=O)Nc2cccc3ccccc23)c(C(=O)O)c1` please.
Result block: > 100 µM

Query block: Report TGI for CC#CC(O)(C(=O)OC1CCC2CCC1N2C)C1CCCC1 (stereo not drawn) please.
Result block: > 100 µM

Query block: Report TGI for CC[C@H](C)[C@@H]([C@@H](CC(=O)N1CCC[C@H]1[C@H](OC)[C@@H](C)C(=O)N[C@H](C)[C@@H](O)c1ccccc1)OC)N(C)C(=O)[C@@H](NC(=O)[C@@H](NC)C(C)C)C(C)C (H-[NMeV]V[Dil][Dolaproine]-X2) please.
Result block: > 100 µM

Query block: Report TGI for `COc1ccc2cc(C#Cc3ccc(-n4c(/C=C/c5cc(OC)c(OC)c(OC)c5)nc5ccccc5c4=O)c(C)c3)ccc2c1` please.
Result block: > 100 µM

Query block: Report TGI for `C[CH2][Sn]([CH2]C)([O]C(=O)c1ccccc1F)[O]C(=O)c1ccccc1F` please.
Result block: > 91 µM

Query block: Report TGI for `S=C(S)NCCNC(=S)S.[Cu+2]` please.
Result block: > 100 µM

Query block: Report TGI for COc1ccc(C(C)c2cc3c(cc2O)OCO3)cc1 (stereo not drawn) please.
Result block: 29.4 µM

Query block: Report TGI for `Cc1cn(CCCC2=NCCCN2)c(=O)[nH]c1=O` please.
Result block: > 100 µM

Query block: Report TGI for `O=C(C[n+]1cccc2cc(Cl)ccc21)c1ccc2c(c1)CCCC2` please.
Result block: 4.5 µM
